- TARGET ENTITY: T1, MAZ (Homo sapiens (pGEX-hMAZ), UniProt P56270 1-477)
- T1 sequence: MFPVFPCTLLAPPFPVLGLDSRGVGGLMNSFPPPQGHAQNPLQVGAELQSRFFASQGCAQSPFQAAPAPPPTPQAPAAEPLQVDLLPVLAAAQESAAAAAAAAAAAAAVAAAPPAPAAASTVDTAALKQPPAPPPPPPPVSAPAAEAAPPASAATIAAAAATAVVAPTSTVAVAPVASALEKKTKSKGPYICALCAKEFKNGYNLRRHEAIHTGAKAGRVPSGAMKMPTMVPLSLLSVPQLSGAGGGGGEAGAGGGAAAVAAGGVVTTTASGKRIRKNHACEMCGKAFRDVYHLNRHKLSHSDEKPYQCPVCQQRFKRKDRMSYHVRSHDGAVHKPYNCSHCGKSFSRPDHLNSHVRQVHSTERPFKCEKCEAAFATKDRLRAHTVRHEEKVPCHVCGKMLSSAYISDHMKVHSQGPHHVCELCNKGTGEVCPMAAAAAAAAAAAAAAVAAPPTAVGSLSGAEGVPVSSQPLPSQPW
- TEST PROTOCOL: double-filter binding
RESULT TYPE: pKd
// pKd: -log10(molar conc.)

Form: binder = GCGGTGTGGGAAGAGGGAAGAGGGGGAGGCAG (structured_DNA) [32R-3n] ; pKd = 6.49
